Measured growth inhibition accompanies every entry in the list below.
test: NCI Yeast Anticancer Drug Screen. Data for the sgs1 mgt1 strain (AID 161);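 further: 0% = growth of cultures given vehicle only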; conditions: S. cerevisiae sgs1 mgt1 strain, at 50.0 µM, active compounds read high
The panel holds about 79,000 compounds, 15% with a hit somewhere; the sample as a whole holds those more often. Calls of active or inactive are those of the source. No stated cut-off is given here; in the data, active means growth inhibition above about 70%; inactive means the rest.

Look over these answered cases.
MOLECULE	MEASURED VALUE
NC(=S)N1N=C2c3ccccc3CC[C@H]2[C@@H]1c1cccs1	80.6% (active)
C=C(C)[P+](C)(c1ccccc1)c1ccccc1	28.9% (inactive)
O=c1[nH]c(=O)c2n[nH]nc2[nH]1	33.4% (inactive)
COc1cccc(C2c3cc4c(cc3OC(N3CCOCC3)C2C)OCO4)c1 (stereo unspecified)	3.2% (inactive)
COc1ccc2cc(CNCCCCCCCCNCc3ccc4cc(OC)ccc4c3)ccc2c1	95.1% (active)
COc1ccc2c3c(c4cc(OC)c(OC)cc4c2c1)CN1CCC[C@H]1[C@@H]3O	91.1% (active)
COC(=O)c1ccc(SCCC(=O)CCl)cc1	99% (active)
C/C(=N\Nc1ccccn1)c1ccccn1	99% (active)

QUERY: I am curious: what growth inhibition value has been reported for C/C(=N\NC(=S)NC(C)(C)C)c1ccccn1 ?
RESULT: 90.5% (active)

QUERY: Field entry: Cc1[nH]nc(C(F)(F)F)c1N=NN1CCOCC1
RESULT: 99.5% (active)

QUERY: Field entry: Cc1[nH]nc(C(=O)N(C)C)c1N=NN(C)C
RESULT: 82% (active)

QUERY: Field entry: Cc1ccc(NC(=S)SCc2ccc(Cl)cc2)cc1Br
RESULT: 91% (active)

QUERY: Field entry: COc1cc2c(c(OC)c1OC)-c1ccc(O)c(=O)cc1C(N=Cc1ccccc1)CC2 (stereo unspecified)
RESULT: -5.3% (inactive)

QUERY: Field entry: Cc1ccc(NCCNCCO)c2c(=O)c3ccccc3sc12
RESULT: 99.2% (active)

QUERY: Field entry: O=C1/C(=C\c2ccc(Cl)cc2Cl)Sc2scc(-c3ccc(O)c(O)c3)[n+]21
RESULT: 97.8% (active)

QUERY: Field entry: COc1ccc2sc3c(C)ccc(NCC4CCCN5CCCCC45)c3c(=O)c2c1 (stereo unspecified)
RESULT: 99.3% (active)

====

test: NCI Yeast Anticancer Drug Screen. Data for the bub3 strain (AID 167); details: S. cerevisiae bub3 mutant strain, at 50.0 µM
The panel holds about 79,000 compounds, 15% with a hit somewhere; the sample as a whole holds those more often. Calls of active or inactive are those of the source. Rule as the data show it: active = growth inhibition above about 70%; inactive = the rest.
Answer with one of the outcomes active, inactive

QUERY: Called result for CCC(CO)Nc1nc2ccc(Br)cc2c2ccccc12 (stereo not given)
RESULT: inactive

====

test: NCI Yeast Anticancer Drug Screen. Data for the rad50 strain (AID 155);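 further: 0% = growth of vehicle-only cultures of the same strain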; conditions: S. cerevisiae rad50 strain growth inhibition; at 50.0 µM (retest, dose inferred, filed as 5.0)
This is part of a sample that, as a whole, favours compounds with a hit. Of some 79,000 tested, about 15% had one in any assay. The source made the active and inactive calls. Cut-off read from the data, not from the text of the source: active = growth inhibition above about 70%; inactive = the rest.
Answer with one of the outcomes active, inactive

Some solved entries appear below for comparison.
COMPOUND	CATEGORY LABEL
CCN1CCC(O)(/C=C/c2cccc(C)c2)C(C(=O)/C=C/c2cccc(C)c2)C1 (stereo unspecified)	active
Cc1cnc(Sc2c([N+](=O)[O-])ncn2C)nc1	inactive

QUERY: Called result for COc1ccc(C(=O)Cn2c(C(C)=O)nc3ccccc32)cc1
RESULT: inactive
